Tested on: Streptococcus pneumoniae
test_details: Antibacterial activity against penicillin-nonsusceptible Streptococcus pneumoniae assessed as percent susceptible isolates by agar dilution method
Assay type: functional
quantity_kind: Activity (%)
Quick note: give the figure in %, leave out the unit.

Answered cases to consult:
CC1(C)S[C@@H]2[C@H](NC(=O)[C@H](N)c3ccc(O)cc3)C(=O)N2[C@H]1C(=O)O; 13.3
CO/N=C(\C(=O)N[C@@H]1C(=O)N2C(C(=O)[O-])=C(C[N+]3(C)CCCC3)CS[C@H]12)c1csc(N)n1; 8.3
CC1(C)S[C@@H]2[C@H](NC(=O)Cc3ccccc3)C(=O)N2[C@H]1C(=O)O; 0
C[C@H]1COc2c(N3CCN(C)CC3)c(F)cc3c(=O)c(C(=O)O)cn1c23.C[C@H]1COc2c(N3CCN(C)CC3)c(F)cc3c(=O)c(C(=O)O)cn1c23.O; 95

--- query ---
Q. Report Activity for CO/N=C(\C(=O)N[C@@H]1C(=O)N2C(C(=O)O)=C(COC(N)=O)CS[C@H]12)c1ccco1 tested on Streptococcus pneumoniae.
A. 0
